Reference source: paper PMC9865020

- system.under.test: JAK2 JH2 wild-type (Homo sapiens, UniProt O60674)
- Construct: Human JAK2 JH2 (503-827); hexa histidine-tag (C)
- Sequence (O60674 503-827): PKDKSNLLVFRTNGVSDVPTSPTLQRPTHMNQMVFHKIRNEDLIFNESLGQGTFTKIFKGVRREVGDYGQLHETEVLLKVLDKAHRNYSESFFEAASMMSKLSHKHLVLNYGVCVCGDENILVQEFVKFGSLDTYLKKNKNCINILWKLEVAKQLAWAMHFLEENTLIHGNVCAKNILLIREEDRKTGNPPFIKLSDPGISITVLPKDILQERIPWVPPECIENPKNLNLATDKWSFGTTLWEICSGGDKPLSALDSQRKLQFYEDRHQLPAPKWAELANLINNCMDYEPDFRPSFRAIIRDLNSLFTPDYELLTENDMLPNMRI
- assay.details: Fluorescence polarization binding assay, Bodipy FL-ATP tracer
- test.settings: FP, Bodipy FL-ATP tracer; average ± standard deviation; lower detection limit 3.5 µM; read-out: IC50 of tracer binding to JAK2 JH2 wt
pIC50: −log10 of the molar value.
# pIC50 values compiled below

compound | qualifier.operator | pIC50
c1ccc(COc2ccc(Nc3ncnc4nc[nH]c34)cc2)cc1 [Compound 9] | = | 3.11
COC(=O)c1ccc(Nc2[nH]cnc3ncnc2-3)cc1 [Compound 8] | = | 4.00
CCN(CC)C(=O)c1ccc(Nc2nc(OCC3CCCCC3)c3nc[nH]c3n2)cc1 [Compound 6, Cdk2 inhibitor IV, reference compound] | ≥ | 5.46
Nc1nc(Nc2ccc(S(N)(=O)=O)cc2)nn1C(=S)Nc1c(F)cccc1F [Compound 3, Cdk1/2 inhibitor III, reference compound] | ≥ | 5.46
Fc1cccc(/C=N/Nc2[nH]cnc3ncnc2-3)c1 [Compound 11] | = | 3.72
Oc1cccc(/C=N/Nc2ncnc3[nH]cnc23)c1 [Compound 12] | = | 3.79
COc1ccc(-c2c(C(F)(F)F)nn3c(=O)cc(-c4cccc([N+](=O)[O-])c4)[nH]c23)cc1 [Compound 13] | = | 4.26
CN(Cc1nc(N)nc(Nc2ccccc2)n1)Cc1ccc(Br)s1 [Compound 5] | = | 4.02
Cc1cc(Nc2cc(CN3CCOCC3)c3nc(C)c(Cc4ccc(Cl)cc4F)n3n2)n[nH]1 [Compound 14, Gandotinib, reference compound] | = | 3.67
COc1cc(/C=N/Nc2ncnc3[nH]cnc23)cc(Br)c1O [Compound 10] | = | 4.09

====

- system.under.test: JAK2 JH2 V617F (Homo sapiens, UniProt O60674, V617F)
- Sequence (O60674 545-809 V617F limits assumed): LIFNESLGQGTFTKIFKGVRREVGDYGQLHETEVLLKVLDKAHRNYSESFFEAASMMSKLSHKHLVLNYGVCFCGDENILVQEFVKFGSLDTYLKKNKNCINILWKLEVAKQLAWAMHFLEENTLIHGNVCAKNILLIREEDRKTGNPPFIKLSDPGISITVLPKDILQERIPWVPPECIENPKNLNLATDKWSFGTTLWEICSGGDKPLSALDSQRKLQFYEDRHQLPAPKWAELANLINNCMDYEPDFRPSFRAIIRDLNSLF
- assay.details: Fluorescence polarization binding assay, Bodipy FL-ATP tracer
- test.settings: FP, Bodipy FL-ATP tracer; lower detection limit of assay 3.5 µM; read-out: IC50 value for binding against JAK2 JH2 V617F

molecule | IC50
Fc1cccc(/C=N/Nc2[nH]cnc3ncnc2-3)c1 | 188 µM
Cc1cc(Nc2cc(CN3CCOCC3)c3nc(C)c(Cc4ccc(Cl)cc4F)n3n2)n[nH]1 [Compound 14, Gandotinib, reference compound] | 142 µM
Nc1nc(Nc2ccc(S(N)(=O)=O)cc2)nn1C(=S)Nc1c(F)cccc1F [Compound 3, Cdk1/2 inhibitor III, reference compound] | ≤ 3.5 µM
c1ccc(COc2ccc(Nc3ncnc4nc[nH]c34)cc2)cc1 | 255 µM
CN(Cc1nc(N)nc(Nc2ccccc2)n1)Cc1ccc(Br)s1 | 91 µM

====

- system.under.test: JAK2 JH2 wild-type (Homo sapiens)
- Construct: Human JAK2 JH2 (503-827); hexa histidine-tag (C); made in house; host or cells: High Five or Sf9 insect cells
- assay.details: Fluorescence polarization binding assay, Bodipy FL-ATP tracer
- test.settings: 100 µM analog concentration; FP, Bodipy FL-ATP tracer
MET means recorded inhibition at 100 µM is 60% or above; NOT MET means it is below 60%.

compound | system.under.test | group
COc1ccc(-c2c(Cc3ccccc3)[nH]n3c(=O)cc(-c4ccc([N+](=O)[O-])cc4)nc23)cc1 | JAK2 JH2 wild-type (Homo sapiens) | NOT MET
CC(Sc1ccccc1F)c1nc(N)nc(Nc2ccccc2)n1 (centres unmarked) | JAK2 JH2 wild-type (Homo sapiens) | NOT MET
Nc1nc(CSCc2ccc(F)cc2)nc(Nc2ccccc2)n1 | JAK2 JH2 wild-type (Homo sapiens) | NOT MET
Nc1nc(CN2CCCC2c2cccs2)nc(Nc2ccccc2)n1 (centres unmarked) | JAK2 JH2 wild-type (Homo sapiens) | MET

====

- system.under.test: JAK2 JH2 wild-type (Homo sapiens)
- Construct: Human JAK2 JH2 (503-827); hexa histidine-tag (C); made in house; host or cells: High Five or Sf9 insect cells
- assay.details: Fluorescence polarization binding assay, Bodipy FL-ATP tracer
- test.settings: 100 µM analog concentration; FP, Bodipy FL-ATP tracer
# inhibition at 100 µM values compiled below
value.type: inhibition at 100 µM (%)

chemical.smiles | value.type | observed.result
Cc1ccc(Nc2nc(N)nc(CN(C)Cc3ccc(Br)s3)n2)cc1 | inhibition at 100 µM | 66
Nc1nc(COC(=O)c2ccoc2)nc(Nc2ccccc2)n1 | inhibition at 100 µM | 31
COc1ccc(CN(C)Cc2nc(N)nc(Nc3ccccc3)n2)cc1F | inhibition at 100 µM | 56
Nc1nc(Nc2ccccc2)n[nH]1 | inhibition at 100 µM | 45
CC(C)(C)c1cc(=O)n2nc(C(F)(F)F)c(-c3ccccc3)c2[nH]1 | inhibition at 100 µM | 18

====

- system.under.test: JAK2 JH2 wild-type (Homo sapiens, UniProt O60674)
- Construct: Human JAK2 JH2 (503-827); hexa histidine-tag (C); made in house; host or cells: High Five or Sf9 insect cells
- assay.details: Fluorescence polarization binding assay, Bodipy FL-ATP tracer
- test.settings: 100 µM analog concentration; FP, Bodipy FL-ATP tracer
True means recorded inhibition at 100 µM is 30% or above; False means it is below 30%.

compound | group
CN(Cc1nc(N)nc(Nc2ccccc2)n1)Cc1cccc(Cl)c1Cl [Compound 28] | True
Cc1cc(=O)n2[nH]c(C(F)(F)F)c(-c3ccccc3)c2n1 [Compound 41] | False
COc1ccc(-c2c(C(F)(F)F)nn3c(=O)cc(-c4cccc([N+](=O)[O-])c4)[nH]c23)cc1 [Compound 13] | True
COc1ccc(-c2c(C)[nH]n3c(=O)cc(-c4ccc([N+](=O)[O-])cc4)nc23)cc1 [Compound 37] | False

====

# IC50 values compiled below
- system.under.test: JAK1 JH1 D1003N (Homo sapiens, UniProt P23458, D1003N)
- Sequence (P23458 866-1154 D1003N): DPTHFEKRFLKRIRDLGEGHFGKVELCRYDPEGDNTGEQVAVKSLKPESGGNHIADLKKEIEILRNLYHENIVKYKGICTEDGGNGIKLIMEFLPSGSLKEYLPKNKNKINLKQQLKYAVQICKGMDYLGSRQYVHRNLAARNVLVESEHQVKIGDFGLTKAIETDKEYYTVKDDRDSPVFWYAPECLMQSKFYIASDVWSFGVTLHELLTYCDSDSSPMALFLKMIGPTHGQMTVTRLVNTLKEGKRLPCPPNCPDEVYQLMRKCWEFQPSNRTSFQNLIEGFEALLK
- assay.details: More sensitive FP binding assay, Bodipy FL-labeled JNJ-7706621 tracer

compound | IC50 (nM)
O=C(Nc1c[nH]nc1-c1nc2ccc(CN3CCOCC3)cc2[nH]1)NC1CC1 [Compound 2, AT9283, reference compound] | 60
c1nc2nc(Nc3ccc(N4CCOCC4)cc3)nc(NC3CCCCC3)c2[nH]1 [Compound 7, Reversine, reference compound] | 350

====

- system.under.test: JAK2 JH1 D976N (Homo sapiens, UniProt O60674, D976N)
- Sequence (O60674 836-1132 D976N): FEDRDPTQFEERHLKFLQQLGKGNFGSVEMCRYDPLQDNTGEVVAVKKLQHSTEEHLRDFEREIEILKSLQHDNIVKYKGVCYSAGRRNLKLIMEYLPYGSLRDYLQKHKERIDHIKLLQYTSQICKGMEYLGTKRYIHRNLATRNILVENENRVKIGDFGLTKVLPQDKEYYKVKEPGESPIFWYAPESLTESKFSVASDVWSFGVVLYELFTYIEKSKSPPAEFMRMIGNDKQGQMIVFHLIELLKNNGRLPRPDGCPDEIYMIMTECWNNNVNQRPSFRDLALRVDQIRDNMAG
- assay.details: Fluorescence polarization binding assay, Bodipy FL-ATP tracer
- test.settings: read-out: inhibition-% of tracer binding to JAK2 JH1

molecule | endpoint.unit | inhibition at 100 µM
Nc1nc(CSCCn2cccn2)nc(Nc2ccccc2)n1 | % | 11
COc1ccc(CN(C)Cc2nc(N)nc(Nc3ccccc3)n2)cc1F | % | 0
COc1ccc(-c2c(C(F)(F)F)nn3c(=O)cc(-c4ccccc4)[nH]c23)cc1 | % | 10
Nc1nc(CN2CCCC2c2cccs2)nc(Nc2ccccc2)n1 (stereo not shown) | % | 0
CC(Sc1ccccc1F)c1nc(N)nc(Nc2ccccc2)n1 (stereo not shown) | % | 31
CSc1ccc(CN(C)Cc2nc(N)nc(Nc3ccccc3)n2)cc1 | % | 7
COc1ccc(Nc2nc(N)n[nH]2)cc1 | % | 21
CC(C)(C)c1cc(=O)n2nc(C(F)(F)F)c(-c3ccccc3)c2[nH]1 | % | 27
Nc1nc(Nc2ccccc2)n[nH]1 | % | 27
COc1ccc(-c2c(C)[nH]n3c(=O)cc(-c4ccc([N+](=O)[O-])cc4)nc23)cc1 | % | 1
Nc1nc(COC(=O)c2ccoc2)nc(Nc2ccccc2)n1 | % | 3
Cc1ccc(Nc2nc(N)nc(-c3ccccc3)n2)cc1 | % | 40
Nc1nc(Nc2ccc(Cl)cc2)n[nH]1 | % | 19
COC(=O)Cc1cc(=O)n2nc(C(F)(F)F)c(-c3ccc(OC)cc3)c2[nH]1 | % | 13
CCCc1cc(=O)n2nc(C(F)(F)F)c(-c3ccccc3)c2[nH]1 | % | 8
COc1ccc(-c2c(C(F)(F)F)nn3c(=O)cc(-c4cccc([N+](=O)[O-])c4)[nH]c23)cc1 | % | 15
COc1ccc(-c2c(Cc3ccccc3)[nH]n3c(=O)cc(-c4ccc([N+](=O)[O-])cc4)nc23)cc1 | % | 0
Nc1nc(Nc2ccc3c(c2)CC[C@@H](N2CCCC2)CC3)nn1-c1cc2c(nn1)-c1ccccc1CCC2 | % | 86
CN(Cc1nc(N)nc(Nc2ccccc2)n1)Cc1ccc(Br)s1 | % | 5

====

- system.under.test: JAK2 JH2 wild-type (Homo sapiens, UniProt O60674)
- Construct: Human JAK2 JH2 (503-827); hexa histidine-tag (C); made in house; host or cells: High Five or Sf9 insect cells
- assay.details: Fluorescence polarization binding assay, Bodipy FL-ATP tracer
- test.settings: 100 µM analog concentration; FP, Bodipy FL-ATP tracer
# inhibition at 100 µM values compiled below

chemical.smiles | inhibition at 100 µM, %
Nc1nc(Nc2ccc(Cl)cc2)n[nH]1 | 55
CCCc1cc(=O)n2nc(C(F)(F)F)c(-c3ccccc3)c2[nH]1 | 8
Nc1nc(CSCCn2cccn2)nc(Nc2ccccc2)n1 | 37
COc1ccc(CNc2n[nH]c(N)n2)cc1 | 1
COC(=O)Cc1cc(=O)n2nc(C(F)(F)F)c(-c3ccc(OC)cc3)c2[nH]1 | 0
Nc1nc(Nc2ccc3c(c2)CC[C@@H](N2CCCC2)CC3)nn1-c1cc2c(nn1)-c1ccccc1CCC2 | 79
CSc1ccc(CN(C)Cc2nc(N)nc(Nc3ccccc3)n2)cc1 | 62
COc1ccc(-c2c(C(F)(F)F)nn3c(=O)cc(-c4ccccc4)[nH]c23)cc1 | 71
COc1ccc(Nc2nc(N)n[nH]2)cc1 | 40
